compounds and their reported drug sensitivity score
# Test system: DLD1 NRF2-WT
# Test name: drug sensitivity score (DSS) viability (DSS score); higher = more sensitive; extreme values may be limits of the assay
# Condition summary: 72 h; CellTiter-Glo viability

| Compound | drug sensitivity score |
| --- | --- |
| C=C1C[C@@H]2CC[C@@]34C[C@H]5O[C@H]6[C@@H](O3)[C@H]3O[C@H](CC[C@@H]3O[C@H]6[C@H]5O4)CC(=O)C[C@@H]3[C@@H](OC)[C@@H](C[C@H](O)CN)O[C@H]3C[C@H]3O[C@@H](CC[C@@H]1O2)C[C@@H](C)C3=C [Eribulin] | 22.6 |
| Oc1ccc2c(c1)CC[C@H](c1ccccc1)[C@@H]2c1ccc(OCCN2CCCC2)cc1 [Lasofoxifene] | 0 |
| O=C1c2c(O)ccc(O)c2C(=O)c2c(NCCNCCO)ccc(NCCNCCO)c21 [Mitoxantrone] | 12.3 |
| Cc1cc(Nc2cc(N3CCN(C)CC3)nc(/C=C/c3ccccc3)n2)n[nH]1 [ENMD-2076] | 11.4 |
| CN1CCN(C(=O)c2ccc3cc(CCNc4ncnc5ccc(C#N)cc45)ccc3c2)CC1 [Senexin B] | 3.5 |
| C#Cc1cccc(Nc2ncnc3cc4c(cc23)OCCOCCOCCO4)c1 [Icotinib] | 2.5 |
| COc1cc(OC)c(/C=C/S(=O)(=O)Cc2ccc(OC)c(NCC(=O)O)c2)c(OC)c1 [Rigosertib] | 21 |
| CC(O)c1cc(C(=O)N[C@@H](C)Cn2ccc(-c3ccc(C#N)c(Cl)c3)n2)n[nH]1 (stereo not given in full) [ODM-201] | 0.2 |
| CO[C@@H]1[C@H](N(C)C(=O)c2ccccc2)C[C@H]2O[C@]1(C)n1c3ccccc3c3c4c(c5c6ccccc6n2c5c31)C(=O)NC4 [Midostaurin] | 9.8 |
| CCN(CC)C(=S)SSC(=S)N(CC)CC [Disulfiram(+CuCl2)] | 0.1 |
| O=C(CCNC(=O)c1ccc(OC(F)(F)F)cc1)N[C@@H]1CCCc2ccccc21 [ML390] | 1.9 |
| COc1ccccc1S(=O)(=O)Nc1ccc2c(c1)CN(C)C(=O)N2 [PFI-1] | 3.2 |
| O=c1[nH]c(=O)n([C@H]2C[C@H](O)[C@@H](CO)O2)cc1F [Floxuridine] | 12.2 |
| NC[C@@](O)(c1ccc(Cl)cc1)c1ccc(-c2cn[nH]c2)cc1 | 10.8 |
| CC(C)Oc1ccc(-c2nn([C@@H](C)c3oc4ccc(F)cc4c(=O)c3-c3cccc(F)c3)c3ncnc(N)c23)cc1F [TGR-1202] | 0 |
| C[C@@H]1CN(CC(=O)Nc2ccc3c(c2)Cc2cccc(-c4cc(=O)cc(N5CCOCC5)o4)c2S3)C[C@H](C)O1 | 0 |
| CC(=O)c1c(C)c2cnc(Nc3ccc(N4CCNCC4)cn3)nc2n(C2CCCC2)c1=O [Palbociclib] | 12.3 |
| CC[C@@H]1CN(C(=O)NCC(F)(F)F)C[C@@H]1c1cnc2cnc3[nH]ccc3n12 [Upadacitinib] | 0 |
| COc1cc2c(cc1OC(C)C)[C@H](c1ccc(Cl)cc1)N(c1ccc(N(C)C[C@H]3CC[C@H](N4CCN(C)C(=O)C4)CC3)cc1)C(=O)C2 [NVP-CGM097] | 3.4 |
| CO[C@@H](C)Cn1c(=O)n(C)c2cnc3ccc(-c4cncc(C(C)(C)O)c4)cc3c21 | 10.5 |
